experiment: qHTS assay to identify small molecule agonists of the NFkB signaling pathway - cell viability counter screen (AID 1159515); conditions: NFkB-bla ME-180 viability, CellTiter-Glo luminescence, 5 h; series mostly up to 61 µM; also: nearly all actives have a fitted effect of over 55% in size
Records with an inconclusive call do not appear. Active and inactive are the calls of the source. Calls follow the shape of the full dose curve.
observation-type: outcome

Observe how each entry below is paired with its result.
CC(=O)C1(C)CC2=C(CCCC2(C)C)CC1C (stereo not given)	inactive
CCC(C)OC(=O)c1ccc(O)cc1 (stereo not given)	inactive
COC(C)COC(C)COC(C)CO (stereo not given)	inactive
CCOCCOCCO	inactive

Q: Look up outcome of "Cc1ncc[nH]1" and report it.
A: inactive

Q: Look up outcome of "C=C(C)C(=O)OCCOC(=O)C(=C)C" and report it.
A: inactive

Q: Look up outcome of "CCOC(=O)C(C#N)=C(c1ccccc1)c1ccccc1" and report it.
A: inactive

Q: Look up outcome of "O=Cc1ccccc1O" and report it.
A: inactive
